Cited source: the supplement of paper PMC11061612

Tested on: PANC-04-03 (Pancreatic Carcinoma);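 also: after 72 h of two-drug dosing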
PROCEDURE DETAILS: Bliss excess, mean over the matrix (fraction); higher = more synergy
Note to self: values exactly at -0.04 are Met. So Bliss excess at or above -0.04 is Met, below is Not met.

Task: Kindly determine if Bliss excess recorded for CN(CCO)CC[C@H](CSc1ccccc1)Nc1ccc(S(=O)(=O)NC(=O)c2ccc(N3CCC([C@@H](O)c4ccccc4-c4ccc(Cl)cc4)CC3)cc2)cc1S(=O)(=O)C(F)(F)F [AZD4320] + Nc1ccn([C@@H]2O[C@H](CO)[C@@H](O)C2(F)F)c(=O)n1 [Gemcitabine] (first compound max 1 µM, 7x7, partner max 0.3 µM) is above or exactly -0.04.
Output: Not met

Task: Subsequent entry: CN(CCO)CC[C@H](CSc1ccccc1)Nc1ccc(S(=O)(=O)NC(=O)c2ccc(N3CCC([C@@H](O)c4ccccc4-c4ccc(Cl)cc4)CC3)cc2)cc1S(=O)(=O)C(F)(F)F [AZD4320] + CN(C)CCCOc1ccc(-c2ccc3ncc4c(c3c2)n(C2CCOCC2)c(=O)n4C)cn1 [AZD0156] (first compound max 1 µM, 7x7, partner max 1 µM)
Output: Not met

Task: Subsequent entry: N#Cc1cnc(Nc2cc(NC[C@H]3CNCCO3)c(C(F)(F)F)cn2)cn1 [SRA737] + CCc1c2c(nc3ccc(O)cc13)-c1cc3c(c(=O)n1C2)COC(=O)[C@]3(O)CC [SN-38] (first compound max 10 µM, 7x7, partner max 0.3 µM)
Output: Not met

Task: Subsequent entry: Cc1c2c(nn1C)CSCc1cc(n(C)n1)CSc1cc(c3ccccc3c1)OCCCc1c(C(=O)O)n(C)c3c-2c(Cl)ccc13 [AZD5991] + CS(=O)(=O)CCNCc1ccc(-c2ccc3ncnc(Nc4ccc(OCc5cccc(F)c5)c(Cl)c4)c3c2)o1 [Lapatinib] (first compound max 1 µM, 7x7, partner max 10 µM)
Output: Met

Task: Subsequent entry: CC(=O)c1c(C)c2cnc(Nc3ccc(N4CCNCC4)cn3)nc2n(C2CCCC2)c1=O [Palbociclib] + Cn1cnc2c(F)c(Nc3ccc(Br)cc3Cl)c(C(=O)NOCCO)cc21 [Selumetinib] (first compound max 10 µM, 7x7, partner max 10 µM)
Output: Met

Task: Subsequent entry: Cn1cnc2c(F)c(Nc3ccc(Br)cc3Cl)c(C(=O)NOCCO)cc21 [Selumetinib] + C[C@@H]1COCCN1C2=NC(=NC(=C2)C3(CC3)[S@](=N)(=O)C)C4=C5C=CNC5=NC=C4 [AZD6738] (first compound max 10 µM, 7x7, partner max 10 µM)
Output: Met

Task: Subsequent entry: CCN(CCO)CCCOc1ccc2c(Nc3cc(CC(=O)Nc4cccc(F)c4)[nH]n3)ncnc2c1 [AZD2811] + C=CCn1c(=O)c2cnc(Nc3ccc(N4CCN(C)CC4)cc3)nc2n1-c1cccc(C(C)(C)O)n1 [AZD1775] (first compound max 1 µM, partner max 1 µM)
Output: Not met
